test: Half-life estimated by daily clearance rates (first-order model, k = Cltotal/Vd); format: in vivo, human; conditions: female, human, serum and urine, other: occupational exposure, Female workers, number 71; menstrual clearance added to renal clearance; read-out: Half-life estimated through daily elimination, GM (converted)
property: half-life (days)

> print(dat)
                                   molecule   property  observed
1  O=C(O)C(F)(F)C(F)(F)C(F)(F)C(F)(F)C(F)(F)C(F)(F)C(F)(F)F  half-life      1130
2  O=S(=O)(O)C(F)(F)C(F)(F)C(F)(F)C(F)(F)C(F)(F)C(F)(F)F [PFHxS, perfluorohexane sulfonate]  half-life      2740

----------
Test: PFAA concentration in serum of occupational workers (HPLC-ESI/MS/MS)
Type: in vivo, human
Settings: human, serum, other: occupational exposure, 46 workers sampled at least three times, 2010; read-out: Serum concentration, GM
Method: The selected fluorochemical plant (Henxin Chemical Plant) in this study is one of the largest producers of PFOS-related chemicals in China and is located in Yingcheng, Hubei province. Perfluoroalkyl sulfonic acids (PFSAs) and perfluorotertiary amines are synthesized through an electro-chemical fluorination (ECF) process. We collected paired serum and urine samples from the occupational workers in the plant for five consecutive years, and the sampling activities were carried out in Nov. 2008, Nov. […]
property: concentration at 2010 calendar year (ng/mL)

> print(dat)
                                   compound                             property  displayunit  observed
1  O=C(O)C(F)(F)C(F)(F)C(F)(F)C(F)(F)C(F)(F)C(F)(F)C(F)(F)F [PFOA, perfluorooctanoic acid]  concentration at 2010 calendar year        ng/mL       622

----------
test: PFAA concentration in serum of occupational workers (HPLC-ESI/MS/MS); assay type: in vivo, human; settings: human, serum, other: occupational exposure, 46 workers sampled at least three times, 2009; read-out: Serum concentration, GM
property: concentration at 2009 calendar year (ng/mL)

> print(dat)
                             chemicalsmiles  observed
1  O=C(O)C(F)(F)C(F)(F)C(F)(F)C(F)(F)C(F)(F)C(F)(F)C(F)(F)F       252

----------
assay: Half-life estimated by annual decline rates of serum PFAAs (first-order model); type: in vivo, human; conditions: human; k = average annual serum decline rate; no new inputs assumed; two time points
Listed molecules paired with reported half-life
property: half-life (days)

> print(dat)
                                   molecule  observed
1  O=S(=O)(O)C(F)(F)C(F)(F)C(F)(F)C(F)(F)C(F)(F)C(F)(F)F [PFHxS, perfluorohexane sulfonate]      1310
2  O=C(O)C(F)(F)C(F)(F)C(F)(F)C(F)(F)C(F)(F)C(F)(F)C(F)(F)F [PFOA, perfluorooctanoic acid]       621

----------
assay: Half-life estimated by daily clearance rates (first-order model, k = Cltotal/Vd); format: in vivo, human; settings: male, human, serum and urine, other: occupational exposure, Male workers, number 136; renal clearance; read-out: Half-life estimated through daily elimination, GM (converted)
property: half-life (days)

> print(dat)
                                   compound   property  displayunit  observed
1  O=C(O)C(F)(F)C(F)(F)C(F)(F)C(F)(F)C(F)(F)C(F)(F)C(F)(F)F [PFOA, perfluorooctanoic acid]  half-life         days      1720
